# Target or test system: formyl peptide receptor 2 (FPR2) (Homo sapiens, UniProt P25090)
# Construct: human FPR2 stably expressed in RBL-2H3 cells; FPR2-ICL3-FlAsH/C-terminal ECFP in HEK-293 cells for FRET
# Sequence (P25090 1-351): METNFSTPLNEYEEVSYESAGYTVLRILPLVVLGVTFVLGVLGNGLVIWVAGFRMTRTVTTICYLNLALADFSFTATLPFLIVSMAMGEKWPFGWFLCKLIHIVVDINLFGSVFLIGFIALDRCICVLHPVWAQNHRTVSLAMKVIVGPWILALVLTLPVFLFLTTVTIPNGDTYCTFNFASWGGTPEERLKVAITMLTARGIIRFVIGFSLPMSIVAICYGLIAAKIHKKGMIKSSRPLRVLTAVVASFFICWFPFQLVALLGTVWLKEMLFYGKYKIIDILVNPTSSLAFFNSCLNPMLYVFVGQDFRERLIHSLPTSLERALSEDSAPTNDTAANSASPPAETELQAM
# Test protocol: competition with WK(FITC)YMVm on RBL-FPR2 cells by flow cytometry (partial); FlAsH FRET conformational change
Quantity: IC50 (µM)
Reply with just the number (in µM).

Ask: Given CC(C)=CCC/C(C)=C/CC/C(=C/Cc1cc(O)ccc1O)CO [C18, ganomycin F] , state its recorded IC50.
Result: 3.2
